- target.entity: CD73 on U138 human neuroglioma cells (Homo sapiens, UniProt P21589)
- Construct: U138 cells were obtained from ATCC and cultured in DMEM with 10% FBS; host or cells: U138 human neuroglioma cells
- Sequence (P21589 27-549): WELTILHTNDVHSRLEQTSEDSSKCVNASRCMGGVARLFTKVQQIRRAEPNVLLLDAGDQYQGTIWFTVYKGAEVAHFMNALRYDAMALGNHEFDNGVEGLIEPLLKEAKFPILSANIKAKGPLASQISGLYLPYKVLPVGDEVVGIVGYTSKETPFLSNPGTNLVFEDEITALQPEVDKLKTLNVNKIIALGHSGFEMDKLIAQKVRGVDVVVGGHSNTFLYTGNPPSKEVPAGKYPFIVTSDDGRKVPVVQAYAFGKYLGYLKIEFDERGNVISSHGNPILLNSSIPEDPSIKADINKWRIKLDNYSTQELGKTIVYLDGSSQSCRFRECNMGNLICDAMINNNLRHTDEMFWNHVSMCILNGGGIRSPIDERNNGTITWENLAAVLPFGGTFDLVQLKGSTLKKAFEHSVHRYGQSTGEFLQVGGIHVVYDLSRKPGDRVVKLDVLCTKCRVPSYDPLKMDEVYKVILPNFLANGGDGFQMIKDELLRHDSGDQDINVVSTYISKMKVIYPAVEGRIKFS
- experiment.notes: CD73 Cell-Based Assay
- experimental.context: U138 cells, AMP substrate, 2 hours at 37° C., inorganic phosphate by malachite green
// reported IC50 per item

# compound, IC50
records = [
    ("C[C@H](Nc1nc(Cl)nc2c1ccn2[C@@H]1O[C@H](COCP(=O)(O)O)[C@@H](O)[C@H]1O)c1ccc(C#N)cc1 [Compound 117]", "< 10 nM"),
    ("O=P(O)(O)COC[C@H]1O[C@@H](n2ncc3c(NC4CC5CC5C4)nc(Cl)nc32)[C@H](O)[C@@H]1O (stereo partly drawn) [Compound 279]", "< 10 nM"),
    ("COCCOc1nc(NC2CCCC2)c2ccn([C@@H]3O[C@H](COCP(=O)(O)O)[C@@H](O)[C@H]3O)c2n1 [Compound 260]", "10 to 100 nM"),
    ("O=P(O)(O)COC[C@H]1O[C@@H](n2ccc3c(NC4CCCCC4)nc(Cl)nc32)[C@H](O)[C@@H]1O [Compound 111]", "< 10 nM"),
    ("O=P(O)(O)COC[C@H]1O[C@@H](n2ccc3c(N[C@@H](CO)c4ccccc4)nc(Cl)nc32)[C@H](O)[C@@H]1O [Compound 218]", "10 to 100 nM"),
    ("C[C@@H](Nc1nc(Cl)nc2c1c(F)cn2[C@@H]1O[C@H](COCP(=O)(O)O)[C@@H](O)[C@H]1O)c1ccccc1 [Compound 130]", "10 to 100 nM"),
]

* * *

- target.entity: Human CD73 (Homo sapiens)
- Construct: purchased R&D Systems; host or cells: CHO cells
- experiment.notes: CD73 Enzyme Assay
- Format: biochemical
- experimental.context: 0.25 nM hCD73, 25 μM AMP, kinetic read at 360 nm; read-out: CD73 Enzyme Assay IC50
pIC50: −log10 of the molar value.

# item.smiles, pIC50
rows = [
    ("O=P(O)(O)COC[C@H]1O[C@@H](n2ccc3c(NCc4ccccc4)nc(Cl)nc32)[C@H](O)[C@@H]1O", "7.00 to 8.00"),
    ("N#Cc1nc(N2CCC(F)(F)CC2)c2ccn([C@@H]3O[C@H](COCP(=O)(O)O)[C@@H](O)[C@H]3O)c2n1", "7.00 to 8.00"),
    ("O=P(O)(O)COC[C@H]1O[C@@H](n2ccc3c(NC4CCCC4)nc(C(F)(F)F)nc32)[C@H](O)[C@@H]1O", "7.00 to 8.00"),
    ("C[C@H](Nc1nc(Cl)nc2c1ccn2[C@@H]1O[C@H](COCP(=O)(O)O)[C@@H](O)[C@H]1O)c1ccc(C(F)(F)F)cc1", "> 8.00"),
    ("Cc1ccc([C@H](C)Nc2nc(Cl)nc3c2ccn3[C@@H]2O[C@H](COCP(=O)(O)O)[C@@H](O)[C@H]2O)cc1", "> 8.00"),
    ("C[C@H](Nc1nc(Cl)nc2c1ccn2[C@@H]1O[C@H](CS(=O)(=O)CP(=O)(O)O)[C@@H](O)[C@H]1O)c1ccc(C#N)cc1", "> 8.00"),
]
